Sourced from patent US7576222B2

biological target: catalytic domain of the recombinant TACE protein (Homo sapiens, UniProt P78536); construct: The catalytic domain of the recombinant TACE protein was expressed and purified; made in house; test: TACE FRET assay using TACE cat; format: biochemical; conditions: read-out: TACE Inhibition (%)
Sequence (P78536 223-474 limits assumed): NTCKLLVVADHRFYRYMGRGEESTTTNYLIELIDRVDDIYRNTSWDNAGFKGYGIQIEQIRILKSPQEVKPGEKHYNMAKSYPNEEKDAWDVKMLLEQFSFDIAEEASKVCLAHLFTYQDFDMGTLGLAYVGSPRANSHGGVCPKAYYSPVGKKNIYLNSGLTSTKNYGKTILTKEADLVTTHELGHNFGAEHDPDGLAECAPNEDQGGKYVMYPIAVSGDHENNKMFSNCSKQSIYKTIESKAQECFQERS
Classify as follows. Reported inhibition at 1 µM greater than or equal to 40%: True. Reported inhibition at 1 µM below: False.

| Structure | Group label |
| --- | --- |
| CC#CCOc1ccc(S(=O)(=O)N[C@@H](Cc2cn(Cc3cccc(F)c3)c3ccc(OC)cc23)C(=O)O)cc1 | True |
| CC#CCOc1ccc(S(=O)(=O)N[C@@H](Cc2cn(CC3CCC3)c3ccc(Cl)cc23)C(=O)O)cc1 | False |
| CC#CCOc1ccc(S(=O)(=O)N[C@@H](Cc2c(C)n(Cc3cccc(OC(F)(F)F)c3)c3ccc(OC)cc23)C(=O)O)cc1 | True |
| CC#CCOc1ccc(S(=O)(=O)N[C@@H](Cc2c(C)n(Cc3ccc(C)cc3)c3ccc(Cl)cc23)C(=O)O)cc1 | True |
| CC#CCOc1ccc(S(=O)(=O)N[C@@H](Cc2cn(Cc3cc(F)cc(F)c3)c3ccc(C(=O)O)cc23)C(=O)O)cc1 | False |
| CC#CCOc1ccc(S(=O)(=O)N[C@@H](Cc2cn(Cc3ccccc3)c3ccc(OC)cc23)C(=O)O)cc1 | False |

###

target: catalytic domain of the recombinant TACE protein (Homo sapiens, UniProt P78536); construct: The catalytic domain of the recombinant TACE protein was expressed and purified; made in house; assay: TACE FRET assay using TACE cat; assay type: biochemical; conditions: read-out: TACE Inhibition (%)

| Compound | inhibition at 1 µM, % |
| --- | --- |
| CC#CCOc1ccc(S(=O)(=O)N[C@@H](Cc2cn(Cc3ccccc3C#N)c3ccc(C(=O)O)cc23)C(=O)O)cc1 [Example 121] | 14.8 |
| CC#CCOc1ccc(S(=O)(=O)N[C@@H](Cc2cn(Cc3ccc4c(c3)OCO4)c3ccc(C(=O)O)cc23)C(=O)O)cc1 [Example 124] | 10.2 |
| CC#CCOc1ccc(S(=O)(=O)N[C@@H](Cc2c(C)n(Cc3cc(F)cc(F)c3)c3ccccc23)C(=O)O)cc1 [Example 155] | 54.3 |
| CC#CCOc1ccc(S(=O)(=O)N[C@@H](Cc2c(C)n(Cc3ccccc3C#N)c3ccccc23)C(=O)O)cc1 [Example 158] | 72.1 |
| CC#CCOc1ccc(S(=O)(=O)N[C@@H](Cc2cn(Cc3cccc(C)c3)c3ccc(C(=O)O)cc23)C(=O)O)cc1 [Example 105] | 11 |

###

molecular target: catalytic domain of the recombinant TACE protein (Homo sapiens, UniProt P78536); construct: The catalytic domain of the recombinant TACE protein was expressed and purified; made in house; test: TACE FRET assay using TACE cat; format: biochemical
IC50 for assorted compounds

| Compound | IC50 / nM |
| --- | --- |
| CC#CCOc1ccc(S(=O)(=O)N[C@@H](Cc2cn(CC(C)C)c3ccc(OC)cc23)C(=O)O)cc1 [Example 67] | 1230 |
| CC#CCOc1ccc(S(=O)(=O)N[C@@H](Cc2c(C)n(Cc3ccc(Cl)cc3)c3ccc(OC)cc23)C(=O)O)cc1 [Example 201] | 290 |
| CC#CCOc1ccc(S(=O)(=O)N[C@@H](Cc2cn(Cc3ccc4c(c3)OCO4)c3ccc(OC)cc23)C(=O)O)cc1 [Example 65] | 1500 |
| CC#CCOc1ccc(S(=O)(=O)N[C@@H](Cc2cn(CC3CCC3)c3ccc(OC)cc23)C(=O)O)cc1 [Example 69] | 1190 |

###

inhibition at 1 µM for assorted molecules
molecular target: catalytic domain of the recombinant TACE protein (Homo sapiens); construct: The catalytic domain of the recombinant TACE protein was expressed and purified; made in house; experiment: TACE FRET assay using TACE cat; type: biochemical; details: read-out: TACE Inhibition (%)
Measured attribute: inhibition at 1 µM

| Structure | Measurement |
| --- | --- |
| CC#CCOc1ccc(S(=O)(=O)N[C@@H](Cc2cn(Cc3ccc(C(C)C)cc3)c3ccc(OC)cc23)C(=O)O)cc1 | 28.2% |
| CC#CCOc1ccc(S(=O)(=O)N[C@@H](Cc2c(C)n(Cc3ccc(C(=O)O)cc3)c3ccc(OC)cc23)C(=O)O)cc1 | 62.1% |
| CC#CCOc1ccc(S(=O)(=O)N[C@@H](Cc2cn(Cc3ccc(C(C)C)cc3)c3ccc(C#N)cc23)C(=O)O)cc1 | 8.34% |
| CC#CCOc1ccc(S(=O)(=O)N[C@@H](Cc2cn(Cc3ccc(OC)cc3)c3ccc(Cl)cc23)C(=O)O)cc1 | 18.3% |
| CC#CCOc1ccc(S(=O)(=O)N[C@@H](Cc2c(C)n(Cc3cc(F)cc(F)c3)c3ccc(OC)cc23)C(=O)O)cc1 | 80.5% |
| CC#CCOc1ccc(S(=O)(=O)N[C@@H](Cc2c(C)n(Cc3ccccc3)c3ccccc23)C(=O)O)cc1 | 18.8% |
| CC#CCOc1ccc(S(=O)(=O)N[C@@H](Cc2cn(Cc3ccccc3OC)c3ccc(OC)cc23)C(=O)O)cc1 | 38.3% |
| CC#CCOc1ccc(S(=O)(=O)N[C@@H](Cc2c(C)n(CC3CCCCC3)c3ccc(OC)cc23)C(=O)O)cc1 | 60.5% |
| CC#CCOc1ccc(S(=O)(=O)N[C@@H](Cc2cn(Cc3cccc(C(F)(F)F)c3)c3ccc(C(=O)O)cc23)C(=O)O)cc1 | 5.51% |
| CC#CCOc1ccc(S(=O)(=O)N[C@@H](Cc2c(C)n(Cc3ccc(F)cc3)c3ccccc23)C(=O)O)cc1 | 52.7% |
| CC#CCOc1ccc(S(=O)(=O)N[C@@H](Cc2cn(Cc3cccc(OC)c3)c3ccc(C(=O)O)cc23)C(=O)O)cc1 | 9.93% |
| CC#CCOc1ccc(S(=O)(=O)N[C@@H](Cc2cn(Cc3ccc(C)cc3)c3ccc(C#N)cc23)C(=O)O)cc1 | 57.8% |
| CC#CCOc1ccc(S(=O)(=O)N[C@@H](Cc2cn(Cc3ccc(C(C)C)cc3)c3ccc(Cl)cc23)C(=O)O)cc1 | 5.26% |
| CC#CCOc1ccc(S(=O)(=O)N[C@@H](Cc2cn(C)c3ccc(C(=O)O)cc23)C(=O)O)cc1 | -3.22% |

###

inhibition at 1 µM for assorted compounds
biological target: catalytic domain of the recombinant TACE protein (Homo sapiens, UniProt P78536); construct: The catalytic domain of the recombinant TACE protein was expressed and purified; made in house; assay: TACE FRET assay using TACE cat; format: biochemical; settings: read-out: TACE Inhibition (%)

| Compound | inhibition at 1 µM, % |
| --- | --- |
| CC#CCOc1ccc(S(=O)(=O)N[C@@H](Cc2c(C)n(Cc3ccc(C(F)(F)F)cc3)c3ccccc23)C(=O)O)cc1 [Example 150] | 35.6 |
| CC#CCOc1ccc(S(=O)(=O)N[C@@H](Cc2cn(Cc3ccccc3F)c3ccc(Cl)cc23)C(=O)O)cc1 [Example 79] | 8.27 |
| CC#CCOc1ccc(S(=O)(=O)N[C@@H](Cc2cn(CC3CCCCC3)c3ccc(Cl)cc23)C(=O)O)cc1 [Example 87] | 37.4 |
| CC#CCOc1ccc(S(=O)(=O)N[C@@H](Cc2cn(CCCCC)c3ccc(C(=O)O)cc23)C(=O)O)cc1 [Example 130] | -5.71 |
| CC#CCOc1ccc(S(=O)(=O)N[C@@H](Cc2cn(Cc3ccc(F)cc3)c3ccc(C(=O)O)cc23)C(=O)O)cc1 [Example 117] | 10.9 |
| CC#CCOc1ccc(S(=O)(=O)N[C@@H](Cc2cn(Cc3ccc(C#N)cc3)c3ccc(C(=O)O)cc23)C(=O)O)cc1 [Example 123] | -2.56 |
| CC#CCOc1ccc(S(=O)(=O)N[C@@H](Cc2c(C)n(CC)c3ccc(OC)cc23)C(=O)O)cc1 [Example 209] | 69.8 |
| CC#CCOc1ccc(S(=O)(=O)N[C@@H](Cc2cn(Cc3ccc(C(F)(F)F)cc3)c3ccc(C(=O)O)cc23)C(=O)O)cc1 [Example 113] | -2.04 |
| CC#CCOc1ccc(S(=O)(=O)N[C@@H](Cc2cn(Cc3ccc(C(F)(F)F)cc3)c3ccc(Cl)cc23)C(=O)O)cc1 [Example 77] | 29.8 |
| CC#CCOc1ccc(S(=O)(=O)N[C@@H](Cc2cn(Cc3ccccc3C(F)(F)F)c3ccc(OC)cc23)C(=O)O)cc1 [Example 55] | 31.3 |
| CC#CCOc1ccc(S(=O)(=O)N[C@@H](Cc2c(C)n(CC3CCC3)c3ccc(OC)cc23)C(=O)O)cc1 [Example 212] | 59.5 |
| CC#CCOc1ccc(S(=O)(=O)N[C@@H](Cc2c(C)n(Cc3ccc(OC)cc3)c3ccccc23)C(=O)O)cc1 [Example 148] | 44.1 |
| CC#CCOc1ccc(S(=O)(=O)N[C@@H](Cc2cn(Cc3ccc(Cl)cc3)c3ccc(C(=O)O)cc23)C(=O)O)cc1 [Example 119] | 11.7 |
| CC#CCOc1ccc(S(=O)(=O)N[C@@H](Cc2c(C)n(Cc3ccc(C(C)C)cc3)c3ccc(Cl)cc23)C(=O)O)cc1 [Example 97] | 21.9 |
